Assay: self-splicing fitness, log relative to wild type (ln ratio); higher = more splicing; Tetrahymena group I intron in knt gene, E. coli kanamycin selection, DiMSum; sequences stand for … in CUCUCU…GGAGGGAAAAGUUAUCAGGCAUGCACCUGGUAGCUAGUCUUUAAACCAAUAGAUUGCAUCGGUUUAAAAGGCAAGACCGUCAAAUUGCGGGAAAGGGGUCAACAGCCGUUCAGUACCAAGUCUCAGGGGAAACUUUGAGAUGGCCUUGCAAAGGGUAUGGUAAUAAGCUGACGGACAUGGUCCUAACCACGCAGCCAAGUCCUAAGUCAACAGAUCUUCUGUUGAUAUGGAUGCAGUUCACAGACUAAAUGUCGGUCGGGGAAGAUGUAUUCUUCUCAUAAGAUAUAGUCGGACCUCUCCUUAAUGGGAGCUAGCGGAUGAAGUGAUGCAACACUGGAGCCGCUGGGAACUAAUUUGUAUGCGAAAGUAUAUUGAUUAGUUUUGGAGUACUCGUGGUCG;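 note: selection with 25 µg/mL kanamycin versus none on LB agar overnight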
Conditions: 30 °C
Classification field: enter rule met for self-splicing fitness (ln) values not below -3, rule not met for values below it.

| SEQUENCE_CONTENT | LABEL_VALUE |
| --- | --- |
| CGUAAGCAAUAUUACGAUCC | rule met |
| UGUAAGCAAUAUUACGUCCA | rule met |
| AAUUAGCAAUAUUACGCUUA | rule met |
| AAUGAGCAAUAUUACGAGCA | rule not met |
| GCGCAGCAAUAUUACGCAUU | rule met |
| CCCUAGCAAUAUUACGCCCC | rule not met |
| AAGGAGCAAUAUUACGACGC | rule not met |
| UUCCAGCAAUAUUACGAUUU | rule met |
| UAUCAGCAAUAUUACGGACU | rule met |
| GCCCAGCAAUAUUACGGAUG | rule met |
| CCCAAGCAAUAUUACGGAUU | rule met |
| GUCUAGCAAUAUUACGUAGU | rule met |
| GGGCAGCAAUAUUACGUAGU | rule met |
| ACUAAGCAAUAUUACGGAUU | rule met |
| GCAUAGCAAUAUUACGAGUU | rule not met |
| ACGCAGCAAUAUUACGUGCC | rule met |
| GUGCAGCAAUAUUACGAUGG | rule not met |
| UCCAAGCAAUAUUACGCUCU | rule not met |
| GUUAAGCAAUAUUACGUUUA | rule met |
| AUGGAGCAAUAUUACGUCUG | rule met |
| GCGAAGCAAUAUUACGAGUU | rule not met |
| GUUGAGCAAUAUUACGGGUG | rule not met |
| AAUAAGCAAUAUUACGGGAU | rule met |
| GCAGAGCAAUAUUACGACCG | rule not met |
| GAAAAGCAAUAUUACGUACA | rule met |
| UUAUAGCAAUAUUACGUACA | rule met |
| GGUGAGCAAUAUUACGGCAU | rule met |
| UCCGAGCAAUAUUACGCUUU | rule met |
| GGCGAGCAAUAUUACGGCCC | rule met |
| AUCAAGCAAUAUUACGAAUU | rule not met |
| UACUAGCAAUAUUACGCCAU | rule met |
| GCUAAGCAAUAUUACGCCGA | rule met |
| GCAUAGCAAUAUUACGAGGU | rule not met |
| UGUCAGCAAUAUUACGCCGG | rule met |
| CACGAGCAAUAUUACGAAGG | rule not met |
| UUGGAGCAAUAUUACGCUUU | rule met |
| CGUCAGCAAUAUUACGCGAU | rule not met |
| AGGGAGCAAUAUUACGCCGA | rule met |
| UACGAGCAAUAUUACGCUUU | rule not met |
| GAUUAGCAAUAUUACGGGAU | rule met |
| AAACAGCAAUAUUACGUUGC | rule not met |
| CCGUAGCAAUAUUACGGACG | rule met |
| GGAUAGCAAUAUUACGGCGU | rule met |
| AAAGAGCAAUAUUACGGCCC | rule not met |
| GGCAAGCAAUAUUACGCGCG | rule met |
| UAACAGCAAUAUUACGGGCA | rule met |
| UUCAAGCAAUAUUACGUAAU | rule met |
| UAUCAGCAAUAUUACGAAUC | rule not met |
| CCCCAGCAAUAUUACGGAAA | rule not met |
| GCAAAGCAAUAUUACGAACC | rule met |
| GGGAAGCAAUAUUACGGGUU | rule not met |
| GACCAGCAAUAUUACGAUCG | rule met |
| GCUCAGCAAUAUUACGGCCU | rule met |
| CCGAAGCAAUAUUACGCGCA | rule met |
| CCUGAGCAAUAUUACGGCUU | rule not met |
| GGGCAGCAAUAUUACGUUGU | rule met |
| ACUUAGCAAUAUUACGAUAG | rule met |
| AUUAAGCAAUAUUACGCUGU | rule not met |
| AGAAAGCAAUAUUACGGCUA | rule met |
| AUUGAGCAAUAUUACGUGAA | rule met |
| UAUGAGCAAUAUUACGAGCG | rule met |
| AGGCAGCAAUAUUACGCGUG | rule met |
| ACGGAGCAAUAUUACGGCGC | rule met |
